pIC50: −log10 of the molar value.
System: TGF-beta receptor type-1 (Homo sapiens) | Read-out: pIC50 | Origin: multiple publications
measure: pIC50

// known answers, use as guide
# input Look up pIC50 for this molecule: CNC(=O)c1cnccc1Nc1nc(-c2cc(Cl)ccc2F)nc2nc(N)ccc12
# output 7.52

# input Look up pIC50 for this molecule: NCC1CC(n2cc(-c3cnc4ccccc4c3)c3c(N)ncnc32)C1 (stereo not drawn)
# output 7.41

A = CC(C)N1C(=O)Cc2cc(-c3cncc(-c4ccc(=O)n(C(C)C)c4)c3)ccc21
B = [2H][C@]1(O)CC[C@H](NC(=O)c2cc(-c3ccc([C@]45C[C@H]4CN(C(C)C)C5)cc3)cnc2N)CC1
# input Hi there, can you help? I need to know whether A or B has lower measured pIC50. Bench note: the answer is the label of the chosen record.
# output B
